Just for reference, patent US7973069B2 is where these values come from.

As shown below, each of these compounds has a reported IC50 value.
System: HCV replicon
Format: cell-based
property name: IC50

compound | property name | recorded value
COc1ccc2c(c1)c(C#N)c(-c1ccc(NC(=O)NC(C)C)cc1)n2C1CCC1 | IC50 | 0.5 to 2 µM
CCCCn1c(-c2ccc(NC(=O)NCCC)cc2)c(C#N)c2ccc(OCC)cc21 | IC50 | 0.5 to 2 µM
CCC(C)NC(=O)Nc1ccc(-c2c(C#N)c3ccc(OC(F)F)cc3n2CC2CC2)cc1 (centres unmarked) | IC50 | 0.5 to 2 µM
C=CCNC(=O)Nc1ccc(-c2c(C#N)c3ccc(OC(F)F)cc3n2CC2CC2)cc1 | IC50 | 0.5 to 2 µM
CCn1c(-c2ccc(NS(=O)(=O)C3CC3)cc2)c(C#N)c2ccc(OC3CC3)cc21 | IC50 | < 0.5 µM
CCOC(=O)Nc1ccc(-c2c(C#N)c3ccc(OCC)cc3n2C2CCC2)cc1 | IC50 | < 0.5 µM
CCOc1ccc2c(C#N)c(-c3ccc(NC(=O)OCC4CC4)cc3)n(C3CCC3)c2c1 | IC50 | < 0.5 µM
CCCCNC(=O)Nc1ccc(-c2c(C#N)c3ccc(OC(F)F)cc3n2CC)cc1 | IC50 | 0.5 to 2 µM
CCOC(=O)Nc1ccc(-c2c(C#N)c3cc(OCc4ccccc4)ccc3n2CC)cc1 | IC50 | 0.5 to 2 µM
CCCOC(=O)Nc1ccc(-c2c(C#N)c3ccc(OCCC)cc3n2C(C)C)cc1 | IC50 | < 0.5 µM
CC(C)S(=O)(=O)Nc1ccc(-c2c(C#N)c3ccc(OC(F)F)cc3n2CC2CC2)cc1 | IC50 | < 0.5 µM
CCn1c(-c2ccc(NC(C)=O)cc2)c(C#N)c2ccc(OC(F)(F)F)cc21 | IC50 | 0.5 to 2 µM
CCn1c(-c2ccc(N3CCCS3(=O)=O)cc2)c(C#N)c2ccc(OCCn3cccn3)cc21 | IC50 | 0.5 to 2 µM
CCn1c(-c2ccc(N)cc2)c(C#N)c2ccc(OC(F)F)cc21 | IC50 | 0.5 to 2 µM
CCCn1c(-c2ccc(N3CCCS3(=O)=O)cc2)c(C#N)c2ccc(OC(F)(F)F)cc21 | IC50 | 0.5 to 2 µM
CCOc1ccc2c(C#N)c(-c3ccc(NC(=O)OC4CCCC4)cc3)n(C3CCC3)c2c1 | IC50 | < 0.5 µM
COc1ccc2c(c1)c(C#N)c(-c1ccc(NC(=O)OCC(C)(C)C)cc1)n2C1CCC1 | IC50 | < 0.5 µM

* * *

System: HCV replicon
Format: cell-based
property name: IC50

compound | recorded value
CC(C)NC(=O)Nc1ccc(-c2c(C#N)c3ccc(OCCN(C)C)cc3n2C2CCC2)cc1 [Compound 1319] | < 0.5 µM
CCn1c(-c2ccc(N3CC(=O)NC3=O)cc2)c(C#N)c2ccc(OC)cc21 [Compound 994] | 0.5 to 2 µM
CC(OC(=O)Nc1ccc(-c2c(C#N)c3ccc(OCCn4ccnc4)cc3n2C2CCC2)cc1)C1CC1 (stereo not shown) [Compound 1328] | < 0.5 µM
CC(C)OC(=O)Nc1ccc(-c2c(C#N)c3ccc(Oc4ncccn4)cc3n2C2CCC2)cc1F [Compound 2336] | < 0.5 µM

* * *

Test system: HCV replicon
Type: cell-based

cpd smiles | tested target | IC50
C=CCNC(=O)Nc1ccc(-c2c(C#N)c3ccc(OC(F)F)cc3n2CC)cc1 | HCV replicon | 0.5 to 2 µM
CCOc1ccc2c(C#N)c(-c3ccc(NC(=O)NC4CCC4)cc3)n(C3CCC3)c2c1 | HCV replicon | < 0.5 µM
CC(C)NC(=O)Nc1ccc(-c2c(C#N)c3ccc(OCCCN4CCN(C)CC4)cc3n2C2CCC2)cc1 | HCV replicon | 0.5 to 2 µM
CC(C)NC(=O)Nc1ccc(-c2c(C#N)c3ccc(OCCCn4ccnc4)cc3n2C2CCC2)cc1 | HCV replicon | < 0.5 µM
CCCn1c(-c2cccc(NS(=O)(=O)CC)c2)c(C#N)c2cc(OCc3ccccc3)ccc21 | HCV replicon | 0.5 to 2 µM
CCn1c(-c2ccc(NP(=O)(OC)OC)cc2)c(C#N)c2ccc(OC)cc21 | HCV replicon | 0.5 to 2 µM
CCCCn1c(-c2ccc(NC(=O)NC(C)C)cc2)c(C#N)c2ccc(OCC)cc21 | HCV replicon | < 0.5 µM
CCOC(=O)Nc1ccc(-c2c(C#N)c3ccc(OC(F)F)cc3n2CC)cc1 | HCV replicon | 0.5 to 2 µM

* * *

System: HCV replicon
Format: cell-based
As shown below, each of these compounds has a reported IC50 value.

compound | IC50
CCn1c(-c2cccc(NC(=O)OCCCl)c2)c(C#N)c2ccc(OCCCN3CCOCC3)cc21 [Compound 1044] | < 0.5 µM
CCn1c(-c2ccc(NC(=O)C(C)(C)C)cc2)c(C#N)c2ccc(OC(F)(F)F)cc21 [Compound 915] | 0.5 to 2 µM
CCn1c(-c2ccc(NC(=O)OCCF)cc2)c(C#N)c2ccc(OCCF)cc21 [Compound 945] | 0.5 to 2 µM
CCn1c(-c2ccc(NC(=O)CCc3ccccc3)cc2)c(C#N)c2ccc(OC(F)(F)F)cc21 [Compound 916] | 0.5 to 2 µM
CCn1c(-c2ccc(NC(=O)NC(C)C)c(F)c2)c(C#N)c2ccc(OC)cc21 [Compound 911] | 0.5 to 2 µM
N#Cc1c(-c2ccc(NS(=O)(=O)C3CC3)cc2)n(C2CCCC2)c2cc(OC(F)F)ccc12 [Compound 1189] | < 0.5 µM
CCOc1ccc2c(C#N)c(-c3ccc(NC(=O)NC4CCCC4)cc3)n(CC3CC3)c2c1 [Compound 1173] | < 0.5 µM
CC(C)OC(=O)Nc1ccc(-c2c(C#N)c3ccc(OCCCN4CCN(C)CC4)cc3n2C2CCC2)cc1 [Compound 1261] | < 0.5 µM
C[C@@H](OC(=O)Nc1ccc(-c2c(C#N)c3ccc(Oc4ncccn4)cc3n2C2CC2)cc1F)C1CC1 [Compound 2413] | < 0.5 µM
CCOc1ccc2c(C#N)c(-c3ccc(NC(=O)OCC(C)C)cc3)n(C3CCC3)c2c1 [Compound 979] | < 0.5 µM
COc1ccc2c(C#N)c(-c3ccc(NS(=O)(=O)C4CC4)cc3)n(CC3CCCC3)c2c1 [Compound 890] | 0.5 to 2 µM
CCN(c1ccc(-c2c(C#N)c3ccc(C(F)(F)F)cc3n2CC)cc1)S(C)(=O)=O [Compound 1003] | 0.5 to 2 µM
COc1ccc2c(C#N)c(-c3ccc(NS(=O)(=O)C4CC4)cc3)n(CC3CC3)c2c1 [Compound 982] | > 2 µM
CCCOc1ccc2c(C#N)c(-c3ccc(NC(=O)OC(C)C4CC4)cc3)n(C(C)C)c2c1 (stereo not shown) [Compound 1244] | < 0.5 µM
CCn1c(-c2ccc(NC(=O)C3CC3)cc2)c(C#N)c2ccc(OCCn3cccn3)cc21 [Compound 1184] | 0.5 to 2 µM
CCn1c(-c2ccc(NC(=O)NC(C)C)cc2)c(C#N)c2cc3c(cc21)OCO3 [Compound 1039] | 0.5 to 2 µM

* * *

As shown below, each of these molecules has a reported IC50 value.
Test system: HCV replicon
Format: cell-based

molecule | IC50
CCOc1ccc2c(C#N)c(-c3ccc(NC(=O)NC(C)C)cc3)n(C3CCCC3)c2c1 | < 0.5 µM
CCCN(c1ccc(-c2c(C#N)c3ccc(C(F)(F)F)cc3n2CC)cc1)S(=O)(=O)CC | < 0.5 µM
COc1ccc2c(C#N)c(-c3ccc(NC(=O)OC(C)C)cc3)n(C3CCC3)c2c1 | < 0.5 µM
CCOc1ccc2c(C#N)c(-c3ccc(NC(=O)OC(C)COC)cc3)n(C3CCC3)c2c1 (stereo not shown) | < 0.5 µM
CCOc1ccc2c(C#N)c(-c3ccc(NP(=O)(OCC)OCC)cc3)n(C3CCC3)c2c1 | < 0.5 µM
CCOc1ccc2c(C#N)c(-c3ccc(NC(=O)OC4CCC4)cc3)n(C3CCC3)c2c1 | < 0.5 µM
CCn1c(-c2cccc(N3CCNC3=O)c2)c(C#N)c2ccc(OCCCN3CCOCC3)cc21 | 0.5 to 2 µM
CCCOc1ccc2c(C#N)c(-c3ccc(NC(=O)OC4CCC4)cc3)n(C(C)C)c2c1 | < 0.5 µM
CCOc1ccc2c(C#N)c(-c3ccc(NC(=O)NC(C)CC)cc3)n(C3CCC3)c2c1 (stereo not shown) | < 0.5 µM
CCOc1ccc2c(c1)c(C#N)c(-c1ccc(NC(=O)OC3CCOC3)cc1)n2C1CCC1 (stereo not shown) | 0.5 to 2 µM
COc1ccc2c(C#N)c(-c3ccc(NS(=O)(=O)C(C)C)cc3)n(C3CCC3)c2c1 | 0.5 to 2 µM
CCOc1ccc2c(c1)c(C#N)c(-c1ccc(NC(=O)OC(C)CC)cc1)n2C1CCC1 (stereo not shown) | < 0.5 µM
CCNc1ccc(-c2c(C#N)c3ccc(OCC)cc3n2C2CC2)cc1 | < 0.5 µM
CCn1c(-c2ccc(NC(=O)OC(C)(C)C)cc2)c(C#N)c2ccc(Br)cc21 | 0.5 to 2 µM
CCOc1ccc2c(C#N)c(-c3ccc(NC(=O)NC(C)C)cc3)n(C(C)C)c2c1 | < 0.5 µM
CCCOc1ccc2c(C#N)c(-c3ccc(NC(=O)OC4CCOC4)cc3)n(C(C)C)c2c1 (stereo not shown) | < 0.5 µM
